tested on: ESS-1 (Other Solid Carcinomas); experiment: Bliss excess, mean over the matrix (fraction); higher = more synergy
ASSAY METRIC: Bliss excess

| MOLECULE | VAL |
| --- | --- |
| Cc1cc2ncnn2cc1Nc1ncc2c(n1)n(C1CCOCC1)c(=O)n2C [AZD7648] + C=CCn1c(=O)c2cnc(Nc3ccc(N4CCN(C)CC4)cc3)nc2n1-c1cccc(C(C)(C)O)n1 [AZD1775] (first compound max 10 µM, partner max 1 µM) | 0.0525 |

From here, focus on the item given below.
# Bliss excess (molecule: C=CCn1c(=O)c2cnc(Nc3ccc(N4CCN(C)CC4)cc3)nc2n1-c1cccc(C(C)(C)O)n1 [AZD1775] + O=C(c1cc(Cc2n[nH]c(=O)c3ccccc23)ccc1F)N1CCN(C(=O)C2CC2)CC1 [Olaparib] (first compound max 1 µM, partner max 10 µM) ) is -0.0316

====

test system: LCLC-97TM1 (Non-Small Cell Lung Carcinoma); assay: combination Emax (second highest fraction inhibited in the dose matrix, 72 h); higher = more inhibition; extreme values may be limits of the assay
ASSAY METRIC: combination Emax
Answer with a number only.

Worked examples, 3 compounds total:
| COMPOUND | combination Emax |
| --- | --- |
| Cc1c2c(nn1C)CSCc1cc(n(C)n1)CSc1cc(c3ccccc3c1)OCCCc1c(C(=O)O)n(C)c3c-2c(Cl)ccc13 [AZD5991] + C=CCn1c(=O)c2cnc(Nc3ccc(N4CCN(C)CC4)cc3)nc2n1-c1cccc(C(C)(C)O)n1 [AZD1775] (first compound max 1 µM, partner max 1 µM) | 0.948 |
| CC1(C)CCC(CN2CCN(c3ccc(C(=O)NS(=O)(=O)c4ccc(NCC5CCOCC5)c([N+](=O)[O-])c4)c(Oc4cnc5[nH]ccc5c4)c3)CC2)=C(c2ccc(Cl)cc2)C1 [Venetoclax] + C[C@@H](Nc1cc(F)cc(F)c1)c1cc(C(=O)N(C)C)cc2c(=O)cc(N3CCOCC3)oc12 [AZD8186] (first compound max 1 µM, 7x7, partner max 3 µM) | 0.129 |
| COc1nnc2ccc(N3CCC(c4ccc(OCCN5CCN(C)C(=O)[C@H]5C)cc4)CC3)nn12 [AZD5153] + CCN(CCO)CCCOc1ccc2c(Nc3cc(CC(=O)Nc4cccc(F)c4)[nH]n3)ncnc2c1 [AZD2811] (first compound max 1 µM, 7x7, partner max 1 µM) | 0.764 |

# combination Emax (compound: Cc1c2c(nn1C)CSCc1cc(n(C)n1)CSc1cc(c3ccccc3c1)OCCCc1c(C(=O)O)n(C)c3c-2c(Cl)ccc13 [AZD5991] + C1CN(CCC1(C(=O)N[C@@H](CCO)C2=CC=C(C=C2)Cl)N)C3=NC=NC4=C3C=CN4 [Capivasertib] (first compound max 1 µM, 7x7, partner max 3 µM) ) is 0.32

# combination Emax (compound: CC1(C)CCC(CN2CCN(c3ccc(C(=O)NS(=O)(=O)c4ccc(NCC5CCOCC5)c([N+](=O)[O-])c4)c(Oc4cnc5[nH]ccc5c4)c3)CC2)=C(c2ccc(Cl)cc2)C1 [Venetoclax] + C=CCn1c(=O)c2cnc(Nc3ccc(N4CCN(C)CC4)cc3)nc2n1-c1cccc(C(C)(C)O)n1 [AZD1775] (first compound max 1 µM, partner max 1 µM) ) is 0.891

# combination Emax (compound: CC1(C)CCC(CN2CCN(c3ccc(C(=O)NS(=O)(=O)c4ccc(NCC5CCOCC5)c([N+](=O)[O-])c4)c(Oc4cnc5[nH]ccc5c4)c3)CC2)=C(c2ccc(Cl)cc2)C1 [Venetoclax] + C1CN(CCC1(C(=O)N[C@@H](CCO)C2=CC=C(C=C2)Cl)N)C3=NC=NC4=C3C=CN4 [Capivasertib] (first compound max 1 µM, 7x7, partner max 3 µM) ) is 0.298

# combination Emax (compound: Cc1nc(Nc2ncc(C(=O)Nc3c(C)cccc3Cl)s2)cc(N2CCN(CCO)CC2)n1 [Dasatinib] + CC(=O)Nc1cccc(-n2c(=O)n(C3CC3)c(=O)c3c(Nc4ccc(I)cc4F)n(C)c(=O)c(C)c32)c1 [Trametinib] (first compound max 2 µM, 7x7, partner max 1 µM) ) is 0.904

# combination Emax (compound: NC1(C(=O)N[C@@H](CCO)c2ccc(Cl)cc2)CCN(c2ncnc3[nH]ccc23)CC1 [Capivasertib] + COc1nnc2ccc(N3CCC(c4ccc(OCCN5CCN(C)C(=O)[C@H]5C)cc4)CC3)nn12 [AZD5153] (first compound max 10 µM, 7x7, partner max 1 µM) ) is 0.805

# combination Emax (compound: CN(C)CCCOc1ccc(-c2ccc3ncc4c(c3c2)n(C2CCOCC2)c(=O)n4C)cn1 [AZD0156] + CCN(CCO)CCCOc1ccc2c(Nc3cc(CC(=O)Nc4cccc(F)c4)[nH]n3)ncnc2c1 [AZD2811] (first compound max 1 µM, 7x7, partner max 1 µM) ) is 0.371

# combination Emax (compound: CN(CCO)CC[C@H](CSc1ccccc1)Nc1ccc(S(=O)(=O)NC(=O)c2ccc(N3CCC([C@@H](O)c4ccccc4-c4ccc(Cl)cc4)CC3)cc2)cc1S(=O)(=O)C(F)(F)F [AZD4320] + Cc1cc2ncnn2cc1Nc1ncc2c(n1)n(C1CCOCC1)c(=O)n2C [AZD7648] (first compound max 1 µM, 7x7, partner max 10 µM) ) is 0.203

# combination Emax (compound: NC1(C(=O)N[C@@H](CCO)c2ccc(Cl)cc2)CCN(c2ncnc3[nH]ccc23)CC1 [Capivasertib] + CC(C)n1c(=O)n(C)c2cnc3cc(F)c(-c4ccc(OCCCN5CCCCC5)nc4)cc3c21 [AZD1390] (first compound max 10 µM, 7x7, partner max 0.3 µM) ) is 0.392

# combination Emax (compound: Cc1c2c(nn1C)CSCc1cc(n(C)n1)CSc1cc(c3ccccc3c1)OCCCc1c(C(=O)O)n(C)c3c-2c(Cl)ccc13 [AZD5991] + C[C@@H]1COCCN1C2=NC(=NC(=C2)C3(CC3)[S@](=N)(=O)C)C4=C5C=CNC5=NC=C4 [AZD6738] (first compound max 1 µM, 7x7, partner max 10 µM) ) is 0.894

# combination Emax (compound: CN(C)CCCOc1ccc(-c2ccc3ncc4c(c3c2)n(C2CCOCC2)c(=O)n4C)cn1 [AZD0156] + C=CCn1c(=O)c2cnc(Nc3ccc(N4CCN(C)CC4)cc3)nc2n1-c1cccc(C(C)(C)O)n1 [AZD1775] (first compound max 1 µM, partner max 1 µM) ) is 0.828

====

system: SW1710 (Bladder Carcinoma); assay: Bliss excess, mean over the matrix (fraction); higher = more synergy
ASSAY METRIC: Bliss excess

Worked examples, 5 molecules total:
| MOLECULE | Bliss excess |
| --- | --- |
| Cc1cc2ncnn2cc1Nc1ncc2c(n1)n(C1CCOCC1)c(=O)n2C [AZD7648] + CCN(CCO)CCCOc1ccc2c(Nc3cc(CC(=O)Nc4cccc(F)c4)[nH]n3)ncnc2c1 [AZD2811] (first compound max 10 µM, 7x7, partner max 1 µM) | 0.0167 |
| CN(CCO)CC[C@H](CSc1ccccc1)Nc1ccc(S(=O)(=O)NC(=O)c2ccc(N3CCC([C@@H](O)c4ccccc4-c4ccc(Cl)cc4)CC3)cc2)cc1S(=O)(=O)C(F)(F)F [AZD4320] + Cn1cnc2c(F)c(Nc3ccc(Br)cc3Cl)c(C(=O)NOCCO)cc21 [Selumetinib] (first compound max 1 µM, 7x7, partner max 3 µM) | 0.0287 |
| CN(CCO)CC[C@H](CSc1ccccc1)Nc1ccc(S(=O)(=O)NC(=O)c2ccc(N3CCC([C@@H](O)c4ccccc4-c4ccc(Cl)cc4)CC3)cc2)cc1S(=O)(=O)C(F)(F)F [AZD4320] + C1CN(CCC1(C(=O)N[C@@H](CCO)C2=CC=C(C=C2)Cl)N)C3=NC=NC4=C3C=CN4 [Capivasertib] (first compound max 1 µM, 7x7, partner max 3 µM) | -0.034 |
| C=CCn1c(=O)c2cnc(Nc3ccc(N4CCN(C)CC4)cc3)nc2n1-c1cccc(C(C)(C)O)n1 [AZD1775] + C1CN(CCC1(C(=O)N[C@@H](CCO)C2=CC=C(C=C2)Cl)N)C3=NC=NC4=C3C=CN4 [Capivasertib] (first compound max 3 µM, partner max 3 µM) | 0.0334 |
| COc1cccc2c1C(=O)c1c(O)c3c(c(O)c1C2=O)C[C@@](O)(C(=O)CO)C[C@@H]3O[C@H]1C[C@H](N)[C@H](O)[C@H](C)O1 [Doxorubicin] + Cc1cc2ncnn2cc1Nc1ncc2c(n1)n(C1CCOCC1)c(=O)n2C [AZD7648] (first compound max 1 µM, 7x7, partner max 10 µM) | 0.0569 |

# Bliss excess (molecule: Cc1cc2ncnn2cc1Nc1ncc2c(n1)n(C1CCOCC1)c(=O)n2C [AZD7648] + O=C(c1cc(Cc2n[nH]c(=O)c3ccccc23)ccc1F)N1CCN(C(=O)C2CC2)CC1 [Olaparib] (first compound max 10 µM, 7x7, partner max 10 µM) ) is -0.0377

# Bliss excess (molecule: Cc1c2c(nn1C)CSCc1cc(n(C)n1)CSc1cc(c3ccccc3c1)OCCCc1c(C(=O)O)n(C)c3c-2c(Cl)ccc13 [AZD5991] + CCN(CCO)CCCOc1ccc2c(Nc3cc(CC(=O)Nc4cccc(F)c4)[nH]n3)ncnc2c1 [AZD2811] (first compound max 1 µM, 7x7, partner max 1 µM) ) is 0.0088
